Biological target: Tyrosine-protein kinase TXK (Homo sapiens, UniProt P42681)
Sequence (P42681 whole entry): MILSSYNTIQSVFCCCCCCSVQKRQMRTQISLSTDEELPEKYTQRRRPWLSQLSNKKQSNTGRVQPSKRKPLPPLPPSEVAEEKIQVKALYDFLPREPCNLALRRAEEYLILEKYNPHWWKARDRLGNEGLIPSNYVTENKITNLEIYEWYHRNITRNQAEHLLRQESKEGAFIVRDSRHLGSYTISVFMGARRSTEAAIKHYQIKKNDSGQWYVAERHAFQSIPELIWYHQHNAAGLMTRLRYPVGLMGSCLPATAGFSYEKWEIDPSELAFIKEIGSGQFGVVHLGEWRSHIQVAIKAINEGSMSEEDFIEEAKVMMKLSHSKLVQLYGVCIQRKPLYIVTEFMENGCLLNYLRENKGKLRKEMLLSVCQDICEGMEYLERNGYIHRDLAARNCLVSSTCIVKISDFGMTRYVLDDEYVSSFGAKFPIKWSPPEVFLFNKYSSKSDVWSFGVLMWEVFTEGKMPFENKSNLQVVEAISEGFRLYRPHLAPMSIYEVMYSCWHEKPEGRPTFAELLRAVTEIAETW
Assay: Inhibition of recombinant human Txk (256 to end residues) using GEEPLYWSFPAKK as substrate incubated for 40 mins in presence of [gamma33P]ATP by radiometric scintillation counting analysis
pIC50: −log10 of the molar value.
readoutType: pIC50

Ask | Entry "CN(C)c1ccc(C(=O)Nc2cccc(NC(=O)COc3ccc4c(=O)ccoc4c3)c2)cc1" has what pIC50?
Reply | < 5.00

====

target: Casein kinase I isoform gamma-2 (Homo sapiens, UniProt P78368); assay: Inhibition of recombinant human CK1gamma2 (18 to end residues) using KRRRALS(p)VAS as substrate incubated for 40 mins in presence of [gamma-33ATP] by radiometric scintillation counting analysis
Sequence (P78368 whole entry, canonical isoform): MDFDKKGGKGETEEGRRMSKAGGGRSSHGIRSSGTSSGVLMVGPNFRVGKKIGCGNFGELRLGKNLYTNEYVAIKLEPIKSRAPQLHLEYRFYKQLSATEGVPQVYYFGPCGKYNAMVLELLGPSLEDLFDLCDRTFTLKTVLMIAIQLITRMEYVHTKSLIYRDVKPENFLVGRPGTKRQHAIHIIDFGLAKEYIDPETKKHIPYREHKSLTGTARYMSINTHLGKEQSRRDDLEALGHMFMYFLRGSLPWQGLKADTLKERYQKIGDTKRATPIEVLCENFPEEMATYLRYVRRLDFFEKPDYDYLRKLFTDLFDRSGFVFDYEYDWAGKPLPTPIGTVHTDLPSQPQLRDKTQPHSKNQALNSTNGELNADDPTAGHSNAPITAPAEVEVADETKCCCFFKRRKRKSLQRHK
pIC50: −log10 of the molar value.
readoutType: pIC50

Ask | # get_value(readout='pIC50', item= "CN(C)c1ccc(C(=O)Nc2cccc(NC(=O)COc3ccc4c(=O)ccoc4c3)c2)cc1" )
Reply | < 5.00

====

biological target: Serine/threonine-protein kinase MARK2 (Homo sapiens); experiment: Inhibition of recombinant full-length human PAR1Balpha using KKKVSRSGLYRSP as substrate measured after 40 mins in presence of [gamma33P]ATP by radiometric scintillation counting analysis
Sequence (Q7KZI7 whole entry): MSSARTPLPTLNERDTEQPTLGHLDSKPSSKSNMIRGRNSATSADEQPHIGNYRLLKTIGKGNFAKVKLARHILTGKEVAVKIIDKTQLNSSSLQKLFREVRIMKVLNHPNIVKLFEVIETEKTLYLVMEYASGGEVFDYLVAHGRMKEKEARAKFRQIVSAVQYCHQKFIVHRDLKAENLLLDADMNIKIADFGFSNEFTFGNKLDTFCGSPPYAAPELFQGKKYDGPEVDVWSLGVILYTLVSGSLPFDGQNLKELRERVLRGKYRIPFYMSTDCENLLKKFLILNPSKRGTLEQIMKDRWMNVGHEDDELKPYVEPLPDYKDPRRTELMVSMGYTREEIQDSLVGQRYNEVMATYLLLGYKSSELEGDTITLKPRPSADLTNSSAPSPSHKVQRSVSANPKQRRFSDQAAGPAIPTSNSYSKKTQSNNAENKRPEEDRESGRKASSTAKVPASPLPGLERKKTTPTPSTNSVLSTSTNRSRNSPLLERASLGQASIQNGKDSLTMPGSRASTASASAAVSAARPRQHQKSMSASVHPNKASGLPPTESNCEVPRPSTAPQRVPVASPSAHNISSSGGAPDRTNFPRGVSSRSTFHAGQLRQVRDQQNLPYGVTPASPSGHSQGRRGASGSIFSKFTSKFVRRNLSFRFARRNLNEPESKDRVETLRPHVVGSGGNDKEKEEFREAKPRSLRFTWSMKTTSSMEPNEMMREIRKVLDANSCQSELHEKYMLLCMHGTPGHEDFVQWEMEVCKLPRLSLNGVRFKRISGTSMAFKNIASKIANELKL
readoutType: IC50

Ask | Please tell me: IC50 of "CN(C)c1ccc(C(=O)Nc2cccc(NC(=O)COc3ccc4c(=O)ccoc4c3)c2)cc1" , system Serine/threonine-protein kinase MARK2 (Homo sapiens)?
Reply | > 10 µM

====

Target: Eukaryotic translation initiation factor 2-alpha kinase 3 (Homo sapiens, UniProt Q9NZJ5)
Sequence (Q9NZJ5 whole entry): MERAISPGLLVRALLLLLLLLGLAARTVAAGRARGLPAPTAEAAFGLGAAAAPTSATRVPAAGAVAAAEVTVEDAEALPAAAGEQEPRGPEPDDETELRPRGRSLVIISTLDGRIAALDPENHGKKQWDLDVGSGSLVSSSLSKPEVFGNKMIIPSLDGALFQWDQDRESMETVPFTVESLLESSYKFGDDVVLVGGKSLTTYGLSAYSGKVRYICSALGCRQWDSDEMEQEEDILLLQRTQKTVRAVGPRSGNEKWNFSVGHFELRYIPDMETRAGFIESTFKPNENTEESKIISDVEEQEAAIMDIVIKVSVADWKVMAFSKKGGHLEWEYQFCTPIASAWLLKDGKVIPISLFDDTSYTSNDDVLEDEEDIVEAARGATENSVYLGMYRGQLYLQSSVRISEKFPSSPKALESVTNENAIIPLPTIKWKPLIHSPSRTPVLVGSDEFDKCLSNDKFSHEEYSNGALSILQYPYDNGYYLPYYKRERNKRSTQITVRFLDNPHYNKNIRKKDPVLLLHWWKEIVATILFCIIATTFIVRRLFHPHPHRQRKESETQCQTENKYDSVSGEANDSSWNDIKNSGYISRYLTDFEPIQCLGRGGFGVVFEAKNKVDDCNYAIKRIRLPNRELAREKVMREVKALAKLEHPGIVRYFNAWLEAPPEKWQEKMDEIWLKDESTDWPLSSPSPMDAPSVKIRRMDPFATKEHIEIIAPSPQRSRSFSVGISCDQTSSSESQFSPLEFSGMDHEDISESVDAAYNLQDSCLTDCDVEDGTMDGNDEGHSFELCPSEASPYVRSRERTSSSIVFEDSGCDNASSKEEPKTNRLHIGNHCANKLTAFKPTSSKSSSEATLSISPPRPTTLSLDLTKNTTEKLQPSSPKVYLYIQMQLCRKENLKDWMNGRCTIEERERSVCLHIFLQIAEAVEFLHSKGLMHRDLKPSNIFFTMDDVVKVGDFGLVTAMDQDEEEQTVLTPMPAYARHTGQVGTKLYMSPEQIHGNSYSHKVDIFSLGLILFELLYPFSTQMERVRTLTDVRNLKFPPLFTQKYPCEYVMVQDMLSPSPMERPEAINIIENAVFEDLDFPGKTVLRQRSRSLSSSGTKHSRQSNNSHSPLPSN
readoutType: IC50

Ask | Need IC50, item "CN(C)c1ccc(C(=O)Nc2cccc(NC(=O)COc3ccc4c(=O)ccoc4c3)c2)cc1"
Reply | > 10 µM

Values compiled from ChEMBL document CHEMBL4376834.
